// data source = patent US7238685B2

ASSAY TARGET: human recombinant ETB receptors (Homo sapiens)
Construct: expressed in transfected cells; host or cells: CHO cells (microsomal membranes)
Sequence (P24530 27-442): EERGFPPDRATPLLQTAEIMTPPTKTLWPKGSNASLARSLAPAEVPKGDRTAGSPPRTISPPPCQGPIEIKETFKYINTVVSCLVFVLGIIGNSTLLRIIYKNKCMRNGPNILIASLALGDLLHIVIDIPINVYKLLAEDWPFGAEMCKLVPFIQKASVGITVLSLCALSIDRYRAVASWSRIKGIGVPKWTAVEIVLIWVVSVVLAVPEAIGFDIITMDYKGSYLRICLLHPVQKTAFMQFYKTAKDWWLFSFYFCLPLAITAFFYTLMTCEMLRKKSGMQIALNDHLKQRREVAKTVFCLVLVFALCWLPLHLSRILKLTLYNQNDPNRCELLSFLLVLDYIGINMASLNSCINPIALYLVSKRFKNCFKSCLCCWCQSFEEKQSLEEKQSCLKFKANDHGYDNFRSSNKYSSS
TEST DETAILS: Inhibition of endothelin binding to membranes from CHO cells carrying human ET receptors (ETB)
EXPERIMENTAL CONTEXT: read-out: IC50 ETB
READOUT NAME: IC50 (nM)

COMPOUND | ASSAY VALUE
Cc1cc(C)c(CN2C(=O)CN[C@](c3ccccc3)([C@H](Oc3nc(C)cc(C)n3)C(=O)O)c3ccccc32)c(C)c1 (racemic) | 10
Cc1cccc([C@]2([C@H](Oc3nc(C)cc(C)n3)C(=O)O)NCC(=O)N(C)c3ccccc32)c1 (racemic) | 180
Cc1cc(C)nc(O[C@H](C(=O)O)[C@@]2(c3ccccc3)NCC(=O)N(Cc3c(Cl)cccc3Cl)c3ccccc32)n1 (racemic) | 3
Cc1cc(C)nc(O[C@H](C(=O)O)[C@@]2(c3ccccc3)NCC(=O)N(CCc3ccccc3)c3ccccc32)n1 (racemic) | 23
COC(=O)[C@@H](c1ccccc1)N1C(=O)CN[C@](c2ccccc2)([C@H](Oc2nc(C)cc(C)n2)C(=O)O)c2ccccc21 (relative stereo) | 23
COC(=O)c1ccc(CN2C(=O)CN[C@](c3ccccc3)([C@H](Oc3nc(C)cc(C)n3)C(=O)O)c3ccccc32)cc1 (racemic) | 29
